test system: MYB; test: HiBiT protein abundance assay, MYB (K562 HiBiT knock-in); assay type: cell-based, human; conditions: HiBiT knock-in K562 cells, 24 hours, top dose 10 μM
For each of the compounds below, state its IC50.

{"compound": "Cn1cc2cc(-c3ccc4nc(N5C[C@H]6CC[C@@H](C5)N6)ccc4n3)c(O)cc2n1", "targetDesc": "MYB", "observable": "IC50", "observed": "0.1 to 1 µM"}
{"compound": "Cn1cc2cc(-c3ccc4nc(C5CCNCC5)ccc4n3)ncc2n1", "targetDesc": "MYB", "observable": "IC50", "observed": "1 to 10 µM"}

# input for lookup
[Q] May I ask what IC50 has been recorded for Cc1nc2c(C)c(O)c(-c3ccc4nc(N5CC[C@@H](NC6(CF)CC6)C5)ccc4n3)cc2o1 (single isomer, unassigned) ?
[A] < 0.1 µM

* * *

test system: MYB; assay: HiBiT protein abundance assay, MYB (K562 HiBiT knock-in); type: cell-based, human; conditions: HiBiT knock-in K562 cells, 24 hours, top dose 10 μM
observable: IC50

Example cases with answers are listed next.
{"molecule": "CNC1CCN(c2ccc3nc(-c4cc(C#N)c5nc(C)cn5c4)ncc3n2)C1 (stereo not shown)", "targetDesc": "MYB", "IC50": "< 0.1 µM"}
{"molecule": "Cc1c(O)c(-c2ncc3nc(N4C[C@@H](C)N[C@@H](C)C4)ccc3n2)cc2cn(C)nc12", "targetDesc": "MYB", "IC50": "0.1 to 1 µM"}
{"molecule": "Cc1nc2c(C)c(O)c(-c3ccc4cc(N5CC[C@@H](NC(C)(C)C)C5)ncc4n3)cc2o1 (single isomer, unassigned)", "targetDesc": "MYB", "IC50": "< 0.1 µM"}
{"molecule": "CN[C@@H]1CCN(c2ccc3nc(-c4cc5cn(C)nc5cc4O)ccc3n2)C1", "targetDesc": "MYB", "IC50": "< 0.1 µM"}
{"molecule": "Cc1nc2c(C)c(O)c(-c3ccc4nc(N5CCC(NC(C)C)C5)ccc4n3)cc2o1 (stereo not shown)", "targetDesc": "MYB", "IC50": "< 0.1 µM"}

List IC50 for every entry below, keeping the order given.
1. Cc1nc2cc(O)c(-c3ccc4nc(N5CCC(NC(C)(C)C)C5)ccc4n3)cc2o1 (stereo not shown)
2. CN(C(=O)Nc1cn[nH]c1)c1cc2nc(N3CCNCC3)ccc2cn1
3. CNC(=O)c1nc(-c2cc3cn(C)nc3c(C)c2O)nc2ccc(N3C[C@@H](C)N[C@@H](C)C3)nc12
4. COc1cc2nn(C)cc2cc1-c1ccc2cc(C3CCNCC3)c(F)cc2n1
5. CN[C@H]1CCN(c2ccc3nc(-c4cc5cn(C)nc5c(C)c4O)ncc3n2)C1 (single isomer, unassigned)

[A]
< 0.1 µM
> 10 µM
0.1 to 1 µM
> 10 µM
< 0.1 µM

List IC50 for every entry below, keeping the order given.
1. Cc1cn2cc(-c3ccc4nc(C5CCNCC5)ccc4n3)c(O)cc2n1
2. Cc1nc2cc(O)c(-c3ccc4nc(N5CCNC(C(C)(C)C)C5)ccc4n3)cc2o1 (stereo not shown)

[A]
1 to 10 µM
0.1 to 1 µM

List IC50 for every entry below, keeping the order given.
1. O=C(NCc1ccn[nH]1)Nc1cc2nc(N3CCNCC3)ccc2cn1
2. Cc1nc2c(C)c(O)c(-c3ccc4nc(N5CC[C@H](NC6CC6)C5)ncc4n3)cc2o1
3. Cn1cc2cc(-c3ccc4nc(C5CCNCC5)ccc4n3)c(C(F)F)cc2n1
4. Cc1nc2cc(O)c(-c3ccc4nc(N5CCC(NC(C)(C)C)C5)ccc4n3)cc2n1C (stereo not shown)
5. Cc1nc2cc(O)c(-c3ccc4nc(N5CC[C@H](NC(C)(C)C)C5)ccc4n3)cc2o1
6. Cc1nc2c(C)c(O)c(-c3ccc4nc(N5CC[C@@H](NCC6CC6)C5)ccc4n3)cc2o1 (single isomer, unassigned)
7. Cn1cc2cc(-c3ccc4nc(N5CCC(NCC6CC6)C5)ccc4n3)c(O)c(F)c2n1 (stereo not shown)

[A]
["> 10 µM", "0.1 to 1 µM", "> 10 µM", "0.1 to 1 µM", "1 to 10 µM", "< 0.1 µM", "< 0.1 µM"]

* * *

tested on: MYB mRNA; test: RT-qPCR splicing assay, MYB mRNA canonical (CJ) and alternative (AJ) junction; type: cell-based, human; conditions: Homo sapiens, MYB canonical junction mRNA, RT-qPCR; read-out: MYB CJ (decrease in CJ mRNA levels, IC50)
observable: IC50

List IC50 for every entry below, keeping the order given.
1. Cc1nc2cc(O)c(-c3ccc4nc(N5CC[C@@H](NC6CC6)C5)ccc4n3)cc2o1
2. CC1CN(c2ccc3nc(-c4cc5cn(C)nc5cc4O)ccc3n2)CCN1 (stereo not shown)
3. CNC(=O)c1nc(-c2cc3cn(C)nc3c(C)c2O)nc2ccc(N3CCN[C@@H](C)C3)cc12 (single isomer, unassigned)
4. CC1CN(c2ccc3nc(-c4cc5cn(C)nc5cc4O)ccc3n2)CCN1C (stereo not shown)
5. Cc1nc2c(F)c(O)c(-c3ccc4nc(N5CCC(NCC6CC6)C5)ccc4n3)cc2o1 (stereo not shown)
6. CN[C@H]1CCN(c2cc3c(Cl)cc(-c4cc5cn(C)nc5c(C)c4O)nc3cc2C)C1
7. Cc1c(O)c(-c2ccc3cc(N4CCNCC4)cc(F)c3n2)cc2cn(C)nc12

[A]
["0.1 to 1 µM", "0.1 to 1 µM", "< 0.1 µM", "0.1 to 1 µM", "< 0.1 µM", "0.1 to 1 µM", "< 0.1 µM"]

* * *

For each of the molecules below, state its IC50.
test system: Target C; test: RT-qPCR canonical junction panel assay, Target C mRNA; format: cell-based; conditions: Table 4, read-out: Target C IC50 (decrease in CJ mRNA levels)

List IC50 for every entry below, keeping the order given.
1. CNC(=O)c1nc(-c2cc3cn(C)nc3cc2O)nc2ccc(N3CCC(N(C)C)CC3)cc12
2. Cc1c(O)c(-c2ccc3nc(N4CC[C@H](NC(C)(C)C)C4)ccc3n2)cc2cn(C)nc12
3. CNC1CCN(c2ccc3nc(-c4cc(C#N)c5nc(C)cn5c4)ncc3n2)C1 (centres unmarked)
4. Cc1nc2c(F)c(O)c(-c3ccc4nc(N5CC[C@H](NC6(CF)CC6)C5)ccc4n3)cc2o1 (single isomer, unassigned)
5. CNC(=O)c1nc(-c2cc3cn(C)nc3cc2O)nc2ccc(N3C[C@H](C)N[C@@H](C)C3)cc12 (single isomer, unassigned)

[A]
1. > 10 µM
2. < 0.1 µM
3. 1 to 10 µM
4. < 0.1 µM
5. > 10 µM

* * *

system: Target C; test: RT-qPCR canonical junction panel assay, Target C mRNA; type: cell-based; conditions: Table 4, read-out: Target C IC50 (decrease in CJ mRNA levels)
pIC50: −log10 of the molar value.
For each of the compounds below, state its pIC50.

Example cases with answers are listed next.
{"compound": "Cc1c(O)c(-c2ccc3nc(N4CCC(NC(C)C)C4)ccc3n2)cc2cn(C)nc12 (stereo not shown)", "pIC50": "> 7.00"}
{"compound": "CNC(=O)c1nc(-c2cc3cn(C)nc3c(F)c2O)nc2ccc(N3C[C@@H](C)N[C@@H](C)C3)cc12", "pIC50": "6.00 to 7.00"}
{"compound": "CN[C@@H]1CCN(c2ccc3nc(-c4cn5cc(C)nc5c(C)c4O)ncc3n2)C1 (single isomer, unassigned)", "pIC50": "6.00 to 7.00"}
{"compound": "Cc1nc2cc(O)c(-c3ccc4nc(N5CC[C@H](NC6CCC6)C5)ccc4n3)cc2o1", "pIC50": "6.00 to 7.00"}
{"compound": "CNC(=O)c1nc(-c2cc3cn(C)nc3c(F)c2O)nc2ccc(N3CCN[C@@H](C)C3)cc12", "pIC50": "5.00 to 6.00"}
{"compound": "CN[C@@H]1CCN(c2ccc3nc(-c4cc(F)c5nc(C)cn5c4)ncc3n2)C1", "pIC50": "6.00 to 7.00"}

List pIC50 for every entry below, keeping the order given.
1. Cc1c(O)c(-c2nc(C(=O)NC3CCC3)c3cc(N4C[C@@H](C)N[C@@H](C)C4)ccc3n2)cc2cn(C)nc12
2. CN[C@H]1CCN(c2cc3c(Cl)cc(-c4cc5cn(C)nc5c(C)c4O)nc3cc2C)C1
3. CNC1CCN(c2ccc3nc(-c4cc5cn(C)nc5c(C)c4O)ncc3n2)C1 (stereo not shown)
4. CN(c1ccc2nc(-c3cc4cn(C)nc4cc3O)ccc2n1)C1CC(C)(C)N(C)C(C)(C)C1
5. Cc1c(O)c(-c2ncc3cc(N4CCNCC4)ccc3n2)cc2cn(C)nc12
6. Cc1nc2c(F)c(O)c(-c3ccc4nc(N5CC[C@H](N[C@H]6C[C@@H](F)C6)C5)ccc4n3)cc2o1
7. Cc1nc(-c2cc3cn(C)nc3cc2O)nc2ccc(N3C[C@@H](C)N[C@@H](C)C3)cc12 [Compound 782, 2,2,2-trifluoroacetate]

[A]
1: < 5.00; 2: 5.00 to 6.00; 3: < 5.00; 4: < 5.00; 5: 5.00 to 6.00; 6: > 7.00; 7: < 5.00
